Just for reference, patent US4650798A is where these values come from.

Tested on: Chloroform-induced arrhythmia
Test: Chloroform-induced arrhythmia (mice)
Conditions: peroral; mice
// Lethal dose lookup, one value per entry

Solved entries (count: 4):
O=C1NC(=O)C(c2ccccc2)(c2ccccc2)N1 [Phenytoin sodium, reference compound]    > 800 mg/kg
C=CC1CN2CCC1CC2C(O)c1ccnc2ccc(OC)cc12 (centres unmarked) [Quinidine sulfonate, reference compound]    800 mg/kg
CCC1(CC)CC2(NC(=O)N(CCCN(C)C)C2=O)c2cc(Cl)ccc2O1 (centres unmarked)    400 mg/kg
CCN(CC)CCN1C(=O)NC2(CC(C)(C)Oc3ccc(F)cc32)C1=O (centres unmarked)    200 mg/kg

I'd like to know its Lethal dose. The compound in question is CCC1(CC)CC2(NC(=O)N(CCCN3CCC(O)CC3)C2=O)c2cc(F)ccc2O1 (centres unmarked) 400 mg/kg

// same read-out, input: CC(C)N(CCC(C(N)=O)(c1ccccc1)c1ccccn1)C(C)C (centres unmarked) [Disopyramide phosphate, reference compound] 600 mg/kg

Now the same for CC1(C)CC2(NC(=O)N(CCCN3CCC(O)CC3)C2=O)c2cc(Cl)ccc2O1 (centres unmarked) [drawing 12] 400 mg/kg

Proceed to CC1(C)CC2(NC(=O)N(CCCN3CCC(O)CC3)C2=O)c2cc(F)ccc2O1 (centres unmarked) [drawing 13] 400 mg/kg
